tested on: MDA-MB-468 breast; experiment: NCI tumour cell line growth inhibition, 48 h
Listed below: TGI values for each entry.
Experimental Endpoint: TGI (µM)

# Compound, Result Comparator, Experimental Value
rows = [
    ("COc1cc(C)c(N(C)C(=O)CN(C)C)cc1Nc1nc(Nc2cccc(F)c2C(N)=O)c2cc[nH]c2n1", ">", 25),
    ("CN1CCN(c2ccc(NC3=C(Cl)C(=O)c4ncccc4C3=O)cc2C(F)(F)F)CC1", "=", 2.69),
    ("CCN(CC)CCNc1ccc(CO)c2sc3ccccc3c(=O)c12", "=", 3.03),
    ("COc1cc2c(C#N)n3c(c2cc1OC)C(=O)C(c1ccccc1)Oc1ccccc1-3 (stereo not given)", ">", 100),
    ("CCCCCn1ncc(-c2c(O)c(O)cc3c(O)c(-c4c(C)cc5c(-c6cnn(CCCCC)n6)c(O)c(O)cc5c4O)c(C)cc23)n1", "=", 3.76),
]

From: PubChem BioAssay (NCI)
